biological target: T1, cynomolgus monkey CD3 E&D complex protein (Sino Biological Inc., CT032-00323H) (cynomolgus monkey, UniProt Q95LI5 22-117; Q95LI8 22-105); assay: BLI, antibody on sensor
T1 construct: bought heterodimer
T1 sequence (Q95LI5 22-117, chain 1 of 2): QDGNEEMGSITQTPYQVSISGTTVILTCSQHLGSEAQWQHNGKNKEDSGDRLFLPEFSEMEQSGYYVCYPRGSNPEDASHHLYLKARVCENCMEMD
T1 sequence (Q95LI8 22-105, chain 2 of 2): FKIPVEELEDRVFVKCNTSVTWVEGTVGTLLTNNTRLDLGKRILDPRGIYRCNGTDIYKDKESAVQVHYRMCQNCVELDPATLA

{"Binder": "hzsp34.23 (antibody, human IgG1, lambda, L234A L235A, V domains shown, IgG1 L234A L235A, lambda) VH: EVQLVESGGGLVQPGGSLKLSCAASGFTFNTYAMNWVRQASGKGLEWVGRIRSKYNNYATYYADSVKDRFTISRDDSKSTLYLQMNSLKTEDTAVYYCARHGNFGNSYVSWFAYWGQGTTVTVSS VL: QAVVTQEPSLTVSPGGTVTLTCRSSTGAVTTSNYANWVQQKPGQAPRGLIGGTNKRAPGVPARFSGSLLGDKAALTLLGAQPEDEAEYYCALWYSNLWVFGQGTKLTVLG", "koff / s⁻¹": 0.000791}
{"Binder": "hzsp34.24 (antibody, human IgG1, lambda, L234A L235A, V domains shown, IgG1 L234A L235A, lambda; parent of the CDR mutants) VH: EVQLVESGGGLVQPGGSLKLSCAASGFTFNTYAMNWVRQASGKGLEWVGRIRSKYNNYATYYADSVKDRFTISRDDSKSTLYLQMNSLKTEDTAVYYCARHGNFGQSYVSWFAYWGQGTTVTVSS VL: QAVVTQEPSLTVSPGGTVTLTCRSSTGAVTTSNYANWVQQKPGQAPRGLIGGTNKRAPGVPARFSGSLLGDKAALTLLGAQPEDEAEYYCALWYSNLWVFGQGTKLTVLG", "koff / s⁻¹": 0.000941}
{"Binder": "hzsp34.19 (antibody, human IgG1, lambda, L234A L235A, V domains shown, IgG1 L234A L235A, lambda) VH: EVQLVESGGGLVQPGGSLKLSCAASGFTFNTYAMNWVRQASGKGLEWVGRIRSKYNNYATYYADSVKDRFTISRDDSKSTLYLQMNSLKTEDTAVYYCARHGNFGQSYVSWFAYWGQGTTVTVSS VL: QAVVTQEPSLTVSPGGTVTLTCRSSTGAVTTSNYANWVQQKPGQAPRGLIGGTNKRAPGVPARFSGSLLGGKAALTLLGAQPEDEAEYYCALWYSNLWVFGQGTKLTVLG", "koff / s⁻¹": 0.00099}
